Where these numbers come from: ChEMBL document CHEMBL1133098

# TARGET OF ASSAY: Glutamate receptor ionotropic, NMDA 2C (Rattus norvegicus, UniProt P35439+Q00961)
# Sequence (Q00961 whole entry, one chain of several): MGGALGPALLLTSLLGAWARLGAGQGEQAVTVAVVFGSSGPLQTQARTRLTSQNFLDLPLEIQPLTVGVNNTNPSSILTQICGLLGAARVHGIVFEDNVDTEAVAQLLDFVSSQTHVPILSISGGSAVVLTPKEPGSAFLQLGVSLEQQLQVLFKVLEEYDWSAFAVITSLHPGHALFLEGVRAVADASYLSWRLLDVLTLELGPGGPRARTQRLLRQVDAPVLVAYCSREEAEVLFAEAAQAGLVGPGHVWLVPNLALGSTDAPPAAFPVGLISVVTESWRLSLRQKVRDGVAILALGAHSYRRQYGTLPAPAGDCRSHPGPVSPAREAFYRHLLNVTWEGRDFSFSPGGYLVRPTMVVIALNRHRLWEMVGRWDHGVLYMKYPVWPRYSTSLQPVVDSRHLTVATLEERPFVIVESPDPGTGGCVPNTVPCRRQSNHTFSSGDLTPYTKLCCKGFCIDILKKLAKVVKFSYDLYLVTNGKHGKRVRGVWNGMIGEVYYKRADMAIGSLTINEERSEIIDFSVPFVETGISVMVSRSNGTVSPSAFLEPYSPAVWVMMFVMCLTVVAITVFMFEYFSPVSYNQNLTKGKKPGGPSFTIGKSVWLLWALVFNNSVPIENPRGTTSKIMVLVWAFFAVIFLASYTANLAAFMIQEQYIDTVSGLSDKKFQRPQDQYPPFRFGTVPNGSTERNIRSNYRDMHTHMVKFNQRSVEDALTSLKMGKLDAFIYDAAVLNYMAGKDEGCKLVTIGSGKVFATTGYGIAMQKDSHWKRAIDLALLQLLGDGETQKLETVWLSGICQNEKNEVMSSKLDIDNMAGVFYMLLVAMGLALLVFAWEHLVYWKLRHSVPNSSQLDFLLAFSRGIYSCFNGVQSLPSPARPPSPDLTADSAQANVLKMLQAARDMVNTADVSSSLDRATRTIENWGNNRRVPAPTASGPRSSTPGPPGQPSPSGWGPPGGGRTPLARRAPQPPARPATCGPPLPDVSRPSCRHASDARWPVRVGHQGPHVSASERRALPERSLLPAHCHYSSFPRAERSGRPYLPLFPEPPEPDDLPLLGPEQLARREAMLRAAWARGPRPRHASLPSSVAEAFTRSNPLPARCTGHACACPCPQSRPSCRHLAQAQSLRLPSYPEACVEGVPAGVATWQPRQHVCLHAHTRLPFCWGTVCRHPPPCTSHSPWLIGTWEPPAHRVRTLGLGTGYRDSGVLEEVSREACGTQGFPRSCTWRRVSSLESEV
# PROTOCOL SUMMARY: In vitro inhibition of NMDA responses at NR1A/2C receptor expressed in Xenopus oocytes
MEASUREMENT KIND: IC50

Request the reported IC50 associated with `O=C1CNC(=O)N1CCCN1CCC(Cc2ccccc2)CC1`
> 100 µM

Entry `Oc1nc2ccccc2n1CCCCN1CCC(Cc2ccccc2)CC1` please
> 100 µM

Check `O=C1CNC(=O)N1CCCCCN1CCC(Cc2ccccc2)CC1` too.
> 100 µM

Now try `Oc1ccc(OCCN2CCC(Cc3ccccc3)CC2)cc1` .
> 100 µM

Follow-up entry: `O=c1[nH]c2ccccc2n1CCCCCN1CCC(Cc2ccccc2)CC1`
> 100 µM

And `O=c1[nH]c2ccccc2n1CCCN1CCC(Cc2ccccc2)CC1` ?
> 100 µM

Follow-up item: `O=C1CNC(=O)N1CCCCN1CCC(Cc2ccccc2)CC1`
> 100 µM

Check `O=c1[nH]c2ccccc2n1CCCN1CCC(Cc2ccc(F)cc2)CC1` too.
> 100 µM
